Taken from the RepoRT retention time repository (doi:10.1021/acs.analchem.1c00972).

ASSAY NOTES: RP, Waters ACQUITY UPLC BEH C18, 100 × 1 mm, 1.7 µm, 50 °C, 0.3 mL/min, estimated dead time 0.17 min; A: water + 10 mM ammonium bicarbonate; B: 10% water + 90% methanol + 10 mM ammonium bicarbonate; gradient (min/%B) 0/0 15/100 21/100 22/0 30/0
STATED CONDITIONS: stereoisomer not certain
Assignment: determine reported LC retention time for the given compounds.
Give bare numbers, in min.

Use the examples below as a reference point.
[[record]]
compound = "c1ccc(-c2ccc(C(c3ccccc3)n3ccnc3)cc2)cc1 (centres undefined) [Bifonazol]"
recorded_measurement = 16.7

[[record]]
compound = "Nc1ccc(Cc2ccc(N)cc2)cc1 [4,4'-Methylenedianiline]"
recorded_measurement = 10.7

[[record]]
compound = "CCNc1nc(NCC)[nH]c(=O)n1 [Simazine 2-Hydroxy]"
recorded_measurement = 9.04

[[record]]
compound = "CCC(C)C(=O)OC1CC(O)C=C2C=CC(C)C(CCC(O)CC(O)CC(=O)O)C21 (centres undefined) [Pravastatin]"
recorded_measurement = 12.1

[[record]]
compound = "CCCN(CCC)C(=O)SCc1ccccc1 [Prosulfocarb]"
recorded_measurement = 16.9

[[record]]
compound = "Nc1c(Cl)cnn(-c2ccccc2)c1=O [iso-Chloridazon]"
recorded_measurement = 11.6


Each compound below has a recorded value; state its LC retention time.
1. CC(C)C1(C)N=C(c2nc3ccccc3cc2C(=O)O)NC1=O (centres undefined) [Imazaquin]
2. CC1(C)SC2C(NC(=O)C(N)c3ccc(O)cc3)C(=O)N2C1C(=O)O (centres undefined) [Amoxicillin]
3. CC(=O)Nc1ccc(O)c(C(=O)O)c1 [N-Acetyl mesalazine]
4. CCC(=C(c1ccccc1)c1ccc(OCCN(C)C)cc1)c1ccccc1 [Tamoxifen]
5. CCc1ccc(CCOc2ccc(CC3SC(=O)NC3=O)cc2)nc1 (centres undefined) [Pioglitazone]
6. COC1CC(CC2CCC(C)C(C(C)C(=O)O)O2)OC2(OC(C)(C3CCC(C)(C4OC(C5OC(O)(CO)C(C)CC5C)CC4C)O3)CC2C)C1C (centres undefined) [Nigericin]
7. COCCOCCOCCO [2-(2-(2-Methoxyethoxy)ethoxy)ethanol]

[9.01, 6.74, 4.58, 18.4, 13.3, 19.7, 6.68]

Give LC retention time for all compounds that follow.
1. CNC(=O)ON=CC(C)(C)S(C)(=O)=O [Aldicarb Sulfone]
2. CCN(CC)CCNC(=O)c1cc(Cl)c(N)cc1OC [Metoclopramide]
3. CC(=O)NCC1CN(c2ccc(N3CCOCC3)c(F)c2)C(=O)O1 (centres undefined) [Linezolid]

[9.41, 12.3, 10]

Kindly give each listed record's LC retention time.
1. COc1ccc2c(c1)OC(O)C(=O)N2O (centres undefined) [DIMBOA]
2. COc1ccc(CCN(C)CCCC(C#N)(c2ccc(OC)c(OC)c2)C(C)C)cc1OC (centres undefined) [Verapamil]
3. CN(C)CCOC(c1ccccc1)c1ccccc1 [Diphenhydramine]

[4.91, 15.9, 15.7]
